# targetOrSystem: HLA-A*0201 (Homo sapiens, UniProt P04439, D140Y/D185E/D98H/E176V/E277Q/G131W/G231S/I119V/I121R/I166T/I218V/L300P/L318F/N151K/N90K/P208A/P217A/Q86G/Q94H/R138H/R169H/T345S)
# measurementProtocol: Peptide binding using T2 cells;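 further: Read-out is peptide-induced stabilization of HLA-A*0201 on the cell surface, reflecting mainly Kon at limiting peptide levels and both Kon and Koff at saturating levels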
# conditionLabel: half maximal binding of wild-type peptide relative to analog
Ends that are not written are not given here.

[
  {
    "substance": "FVSDKIFYV [SSX2 41-49 (K41F, A42V, E44D)]",
    "Relative affinity (1/RA)": 1.1
  },
  {
    "substance": "FVSEKIFSV [SSX2 41-49 (K41F, A42V, Y48S)]",
    "Relative affinity (1/RA)": 3.9
  },
  {
    "substance": "WVSEKIFYV-OH [SSX2 41-49 (K41W, A42V)]",
    "Relative affinity (1/RA)": 3.0
  },
  {
    "substance": "YASEKIFYV-OH [SSX2 41-49 (K41Y)]",
    "Relative affinity (1/RA)": 1.7
  },
  {
    "substance": "FVSEKLFYV [SSX2 41-49 (K41F, A42V, I46L)]",
    "Relative affinity (1/RA)": 1.9
  },
  {
    "substance": "FASEKIFYV [SSX2 41-49 (K41F)]",
    "Relative affinity (1/RA)": 1.5
  },
  {
    "substance": "WMSEKIFYV-OH [SSX2 41-49 (K41W, A42M)]",
    "Relative affinity (1/RA)": 2.9
  },
  {
    "substance": "FVSEKIFTV-OH [SSX2 41-49 (K41F, A42V, Y48T)]",
    "Relative affinity (1/RA)": 3.8
  }
]

Measured values drawn from patent US7511119B2 for this set.
